- TARGET OR TEST SYSTEM: protein kinases (human kinome) (Homo sapiens, UniProt O75385)
- Sequence (O75385 whole entry): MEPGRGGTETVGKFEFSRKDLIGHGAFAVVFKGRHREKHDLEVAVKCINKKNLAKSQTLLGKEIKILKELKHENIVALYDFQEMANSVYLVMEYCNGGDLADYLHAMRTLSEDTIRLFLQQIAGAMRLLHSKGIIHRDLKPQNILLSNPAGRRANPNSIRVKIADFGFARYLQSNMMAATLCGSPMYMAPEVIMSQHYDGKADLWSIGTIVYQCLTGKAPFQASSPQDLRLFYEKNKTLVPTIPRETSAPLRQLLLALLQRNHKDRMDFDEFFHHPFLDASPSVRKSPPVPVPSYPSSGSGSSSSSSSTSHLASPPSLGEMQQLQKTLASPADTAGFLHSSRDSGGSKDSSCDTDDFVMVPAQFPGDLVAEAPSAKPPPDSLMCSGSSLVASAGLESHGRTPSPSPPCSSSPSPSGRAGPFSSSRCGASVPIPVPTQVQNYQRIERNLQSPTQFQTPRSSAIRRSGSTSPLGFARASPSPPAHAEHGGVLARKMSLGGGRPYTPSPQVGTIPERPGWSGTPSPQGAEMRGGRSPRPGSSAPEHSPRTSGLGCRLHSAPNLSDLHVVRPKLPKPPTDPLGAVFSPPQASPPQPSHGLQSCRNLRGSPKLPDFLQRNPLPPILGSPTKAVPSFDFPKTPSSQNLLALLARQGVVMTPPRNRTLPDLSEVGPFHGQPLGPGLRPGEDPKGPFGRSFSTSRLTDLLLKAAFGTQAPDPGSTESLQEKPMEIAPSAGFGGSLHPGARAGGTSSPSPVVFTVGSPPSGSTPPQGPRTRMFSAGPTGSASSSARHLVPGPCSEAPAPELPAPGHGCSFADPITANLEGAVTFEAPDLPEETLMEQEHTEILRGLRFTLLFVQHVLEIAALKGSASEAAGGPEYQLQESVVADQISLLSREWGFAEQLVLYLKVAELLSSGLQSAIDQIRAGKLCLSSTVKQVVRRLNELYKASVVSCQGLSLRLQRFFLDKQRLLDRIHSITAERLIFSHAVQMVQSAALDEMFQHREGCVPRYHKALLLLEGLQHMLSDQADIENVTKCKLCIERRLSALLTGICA
- Type: cell-based
- STUDY CONDITIONS: ULK1 (O75385) protein abundance, degrader vs DMSO; down
# logFC values compiled below
The answer should be a number; do not append a unit.

Look over these answered cases.
- COMPOUND: "Cc1ccc(NC(=O)c2cccc(C(F)(F)F)c2)cc1N1Cc2cnc(Nc3ccc(N4CCN(CCCOc5cccc6c5C(=O)N(C5CCC(=O)NC5=O)C6=O)CC4)nc3)nc2N(C)C1=O (stereo not drawn)"
  logFC: "−0.3582"
- COMPOUND: "Cc1ccc(NC(=O)c2cccc(C(F)(F)F)c2)cc1N1Cc2cnc(Nc3ccc(N4CCN(CCCCC(=O)N[C@H](C(=O)N5C[C@H](O)C[C@H]5C(=O)N[C@@H](C)c5ccc(-c6scnc6C)cc5)C(C)(C)C)CC4)nc3)nc2N(C)C1=O"
  logFC: "−0.352"

Please examine the following record next.
Problem: GET /values?readout=logFC&item= O=C(COc1cccc2c1C(=O)N(C1CCC(=O)NC1=O)C2=O)NCCCCCCCN1CCc2cc(Nc3ncc(C4CC4)c(NCCCNC(=O)C4CCC4)n3)ccc2C1 (stereo not drawn)
Solution: −1.683

###

- TARGET OR TEST SYSTEM: protein kinases (human kinome) (Homo sapiens)
- Type: cell-based
- STUDY CONDITIONS: CDK7 P50613; experiment wp016
Criterion: logFC CDK7 strictly less than -0.8. Met: True. Not met: False.

- COMPOUND: "CC(C)S(=O)(=O)c1ccccc1Nc1nc(Nc2ccc(N3CCN(CCOCCOCCNC(=O)CNc4ccc5c(c4)C(=O)N(C4CCC(=O)NC4=O)C5=O)CC3)cc2)ncc1Cl (stereo not drawn)"
  LABEL VALUE: "True"
- COMPOUND: "CC(C)S(=O)(=O)c1ccccc1Nc1nc(Nc2ccc(N3CCN(CCOCCOCCOCCNC(=O)CNc4cccc5c4C(=O)N(C4CCC(=O)NC4=O)C5=O)CC3)cc2)ncc1Cl (stereo not drawn)"
  LABEL VALUE: "False"
- COMPOUND: "CC(C)S(=O)(=O)c1ccccc1Nc1nc(Nc2ccc(N3CCN(CCOCCNC(=O)CNc4cccc5c4C(=O)N(C4CCC(=O)NC4=O)C5=O)CC3)cc2)ncc1Cl (stereo not drawn)"
  LABEL VALUE: "False"

From here, focus on the item given below.
Problem: Does CC(C)S(=O)(=O)c1ccccc1Nc1nc(Nc2ccc(N3CCN(CCOCCOCCNC(=O)CNc4cccc5c4C(=O)N(C4CCC(=O)NC4=O)C5=O)CC3)cc2)ncc1Cl (stereo not drawn) have logFC CDK7 strictly under -0.8?
Solution: False

###

- TARGET OR TEST SYSTEM: protein kinases (human kinome) (Homo sapiens, UniProt Q00534)
- Sequence (Q00534 whole entry): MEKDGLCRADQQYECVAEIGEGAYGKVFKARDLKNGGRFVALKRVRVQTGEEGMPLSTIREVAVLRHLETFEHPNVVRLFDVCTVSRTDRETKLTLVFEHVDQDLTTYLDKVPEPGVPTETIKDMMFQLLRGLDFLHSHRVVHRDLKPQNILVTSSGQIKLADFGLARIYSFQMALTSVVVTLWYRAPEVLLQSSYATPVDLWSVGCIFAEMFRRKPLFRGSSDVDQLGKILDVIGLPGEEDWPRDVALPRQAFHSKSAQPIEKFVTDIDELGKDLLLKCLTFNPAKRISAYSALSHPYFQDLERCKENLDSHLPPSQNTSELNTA
- Format: cell-based
- STUDY CONDITIONS: CDK6 (Q00534), direction down; experiment wp016
# logFC CDK6 values compiled below
The answer should be a number; do not append a unit.

Problem: GET /values?readout=logFC CDK6&item= CC(C)S(=O)(=O)c1ccccc1Nc1nc(Nc2ccc(N3CCN(CCOCCNC(=O)CNc4ccc5c(c4)C(=O)N(C4CCC(=O)NC4=O)C5=O)CC3)cc2)ncc1Cl (centres unmarked)
Solution: −0.8585

Problem: GET /values?readout=logFC CDK6&item= CC(C)S(=O)(=O)c1ccccc1Nc1nc(Nc2ccc(N3CCN(CCOCCNC(=O)CNc4cccc5c4C(=O)N(C4CCC(=O)NC4=O)C5=O)CC3)cc2)ncc1Cl (centres unmarked)
Solution: −0.8832

Problem: GET /values?readout=logFC CDK6&item= CC(C)S(=O)(=O)c1ccccc1Nc1nc(Nc2ccc(N3CCN(CCOCCOCCNC(=O)CNc4ccc5c(c4)C(=O)N(C4CCC(=O)NC4=O)C5=O)CC3)cc2)ncc1Cl (centres unmarked)
Solution: −0.6531

Problem: GET /values?readout=logFC CDK6&item= CC(C)S(=O)(=O)c1ccccc1Nc1nc(Nc2ccc(N3CCN(CCOCCOCCOCCNC(=O)CNc4ccc5c(c4)C(=O)N(C4CCC(=O)NC4=O)C5=O)CC3)cc2)ncc1Cl (centres unmarked)
Solution: −0.3396

Problem: GET /values?readout=logFC CDK6&item= CC(C)S(=O)(=O)c1ccccc1Nc1nc(Nc2ccc(N3CCN(CCOCCOCCNC(=O)CNc4cccc5c4C(=O)N(C4CCC(=O)NC4=O)C5=O)CC3)cc2)ncc1Cl (centres unmarked)
Solution: −0.5831
